assay: Caco-2 permeability, Method B7; type: in vitro ADME, human; conditions: human; Caco-2, 10 μM, without P-gp inhibitor
TEST_READOUT: Papp A→B at 60 min, 10 μM (×10⁻⁶ cm/s)

* CC(C)[C@@H]1NCCOc2cccc(F)c2C#CCNC(=O)[C@@H](Cc2ccccc2)NC(=O)[C@H](C(C)O)N(C)C1=O (some centres unmarked) | 0.171
* CC(C)[C@@H]1NCCOc2ccccc2C[C@H](O)[C@@H](C)NC(=O)[C@@H](Cc2cccc(F)c2)NC(=O)[C@H](C(C)O)N(C)C1=O (some centres unmarked) | 0.11
* CC(C)[C@@H]1NCCOc2ccccc2C2CCC(C2)NC(=O)[C@@H](Cc2ccc(F)cc2)NC(=O)[C@H](C(C)O)N(C)C1=O (some centres unmarked) | 0.291
* CC(O)[C@H]1C(=O)N[C@H](Cc2ccccc2)C(=O)NCC#Cc2c(F)cccc2OCCN[C@@H](C2(C)CC2)C(=O)N1C (some centres unmarked) | 0.097
* CC(O)[C@H]1C(=O)N[C@H](Cc2ccccc2)C(=O)NCCCc2cccc3c2OC(CC3)CN[C@@H](C2CC2)C(=O)N1C (some centres unmarked) | 0.193
* CC(O)[C@H]1C(=O)N[C@H](Cc2ccccc2)C(=O)NCC#Cc2ccc(F)cc2OCCN[C@@H](C2(C)CC2)C(=O)N1C (some centres unmarked) | 0.112
* CC[C@@H]1CCc2ccc(F)cc2OCCN[C@@H](C(C)C)C(=O)N(C)[C@@H](C(C)O)C(=O)N[C@H](Cc2c[nH]c3ccccc23)C(=O)N1 (some centres unmarked) | 0.091
* CC(C)[C@@H]1NCCOc2ccccc2C2CCC(C2)NC(=O)[C@@H](Cc2ccccc2)NC(=O)[C@H](C(C)O)N(C)C1=O (some centres unmarked) | 0.266
